Each recorded value in this set is attributed to PubChem BioAssay (NCI).

For each entry below, report its growth value.
# Test system: TK-10 renal
# TEST SUMMARY: NCI-60 one-dose screen, 48 h (100 = growth as untreated, 0 = no growth, -100 = all killed)
# CONDITION DETAILS: 10 µM unless noted
The panel holds about 83,000 compounds, 20% with a hit somewhere; the sample as a whole holds those more often.
State just the number; it will be interpreted in %.

Look up TK-10 renal data: growth of Cc1nn(-c2ccccc2)c(Oc2ccccc2)c1/C=N/NC(=O)Cn1c(=O)sc2ccccc21 , then report it.
60.7

Provide measured growth on TK-10 renal for COc1ccc(C2=NN3C(C2)c2cc(Br)ccc2OC3c2ccncc2)cc1 (stereo not drawn) please.
98.6

# assay system TK-10 renal: give growth of N#C/C(=C\c1cccc2cnccc12)N1N=NC2C=CC=CC21 (stereo not drawn)
55.6

* * *

Would you kindly list growth for each of these molecules?
# Test system: BT-549 breast
# TEST SUMMARY: NCI-60 one-dose screen, 48 h (100 = growth as untreated, 0 = no growth, -100 = all killed)
# CONDITION DETAILS: 10 µM unless noted
About 83,000 compounds went through this panel and 20% of them were active in at least one assay; those are over-represented in the sample as a whole.
# value in %; strip the unit string

Entry CO[C@H]1CC(c2ccc[nH]2)=N[C@]12O[C@@H](C)C[C@@H]1CCCCCCCc3ccc([nH]3)[C@H]12 needs its growth filled in; supply it.
33.7

For the molecule CCCCCCC/C=N/NC(=O)c1ccc(-n2cc(-c3ccccc3)nn2)cc1 , report growth.
82.1

Retrieve growth measured for CCOC(=O)CC1CSC(N/N=C(/C)c2cccc(C(F)(F)F)c2)=N1 (stereo not drawn) and print it.
85.6

Indicate its recorded growth; the molecule in question is COC(=O)c1ccc(-n2cc(CCCOS(=O)(=O)c3ccc(F)cc3)nn2)cc1
101

Determine its reported growth: O=C(O)/C=C/c1cn(-c2ccccc2)nc1-c1ccc(F)cc1
90.7

Recall and state the measured growth for O=c1[nH]c(CN2CCN(c3ccccc3)CC2)nc2c(Br)cc(Br)cc12 .
123

Report growth, nothing else, for this molecule: O=[N+]([O-])c1ccc(N/N=C\c2cc(Cl)ccc2O)nc1
42.4

Identify measured growth corresponding to CCOC(=O)CC1C(CNC(=O)NC)OC(n2cnc3c(NC(=O)Nc4ccccc4)ncnc32)C1O[Si](C)(C)C(C)(C)C (stereo not drawn)
81.6

* * *

# Tested on: NCI-H522 lung
# TEST SUMMARY: NCI-60 one-dose screen, 48 h
# CONDITION DETAILS: 10 µM unless noted
The panel holds about 83,000 compounds, 20% with a hit somewhere; the sample as a whole holds those more often. Activity calls are given as the source filed them. Rule for the calls: active = growth percent below 10; inactive = the rest.
Entry note: the call must match one of yes (active), no (inactive)

Which outcome did this test record for the compound Cc1c2cnccc2c(C)c2c1c1cc(C(=O)O)ccc1n2C ?
yes

So what was the verdict on COc1ccc(C2CC(=O)Oc3c(OC)c4c(c(OC)c32)OCO4)cc1 (stereo unspecified) in this test?
no

What outcome does the record of this test show for Cc1cc2nc(C(Cl)Cl)nc(-c3ccccc3)n2n1 ?
no

# fetch the recorded call for COc1ccc(-c2nc3cc(C(=O)NC4CCCCC4)ccc3n2C2CCCCC2)cc1 here
no

Outcome logged for CO[C@H]1CC(c2ccc[nH]2)=N[C@]12O[C@@H](C)C[C@@H]1CCCCCCCc3ccc([nH]3)[C@H]12 in this assay:
no

Please share the test call associated with C#CCOc1ccc(C2=NN(CCCC)C3N=C(Cl)c4ncn(CCCC)c4N23)cc1OCC#C (stereo unspecified) .
no

Outcome? O=C(O)COc1ccc(F)cc1
no

For COc1cccc(/C=C/C(=O)/C=C(/C=C/c2cccc(OC)c2OC)OB(F)F)c1OC , which call appears in the assay record?
no

What is the recorded call for this compound in the test? O=C(OCc1ccc2c(Br)cc(Br)c(O)c2n1)N1CCN(C(=O)c2cc3ccccc3[nH]2)CC1
no

Record request — test call for Nc1c(C(=O)c2ccc(Cl)cc2)sc(Nc2ccccc2)c1-c1nc2ccccc2s1
yes

Recorded call for CCCN1C2CCC1/C(=C\c1ccc(OC)cc1)C(=O)/C2=C/c1ccc(OC)cc1 ?
no

Could you kindly confirm the outcome this assay logged for Cc1ccc(Nc2nc(N)nc(N)c2N=O)cc1Cl ?
no

Which outcome was entered for the compound CC(C)n1cc(C2=C(c3cccc4ccccc34)C(=O)NC2=O)c2cc(Br)ccc21 in this test?
no

For this compound, state the assay outcome: CCCCN(CCC#N)C(N)=O
no

Record lookup: outcome of this test for CC(C)=CC(=O)C1C(=O)c2ccccc2C1=O ?
no

Called result for COc1ccc(C(c2cc(OC)c(OC)c(OC)c2)n2cncn2)cc1O (stereo unspecified)
no

Name the outcome recorded for O=C(Nc1ccc(Oc2cccc(F)c2)c(Cl)c1)c1cnccn1 in the assay.
no

Hi, sorry to bother you, what did the test record for Cc1ccc(C2=Nc3c(N)nc(N)nc3NC(c3cccc(Nc4ccnc5cc(C(F)(F)F)ccc45)c3)C2)cc1 (stereo unspecified) ?
no

Per the records of this test, what outcome belongs to O=C1Nc2ccccc2/C1=C/c1cccn1CCCCCCn1c2ccccc2c(=O)c2ccccc21 ?
no

Which result was noted for this compound in the test: CC1(C)C2=C(C(=O)N1Cc1ccccc1)C(c1ccco1)N(C(=O)C1CCC1)CCN2 (stereo unspecified)
no

# lookup: test call for O=C(Nc1ncc(Cc2ccccc2Cl)s1)c1ccc2c(c1)OCCO2
yes

Check the results log: what was the call for COc1ccc(C(=O)C2OC3=C(C(=O)CC(C)(C)C3)C2c2cccc(Oc3ccccc3)c2)cc1 (stereo unspecified) ?
no

So what was the verdict on Cc1cc(C)n(C(=O)CSc2nc3sc4c(c3c(=O)n2-c2ccccc2)CCCCC4)n1 in this test?
no

Check the results log: what was the call for COc1ccc(/C=C2/CCc3cc4ccc(OC)cc4[o+]c32)c(O)c1 ?
no

How was CC(C)c1nc(N(C)S(C)(=O)=O)nc(-c2ccc(F)cc2)c1/C=C/C(=O)C[C@@H](O)CC(=O)O classified in this test?
no

Returns: the outcome recorded for O=C(Nc1ccccc1C(F)(F)F)C1=NCCCCN1 in this assay.
no

// outcome(item) with item = c1ccc(Cn2cc3c(c2)-c2nc(Nc4ccccc4)ncc2CC3)cc1
no

Test call for this compound, please: CN1CCN(Cc2ccc(NC(=O)c3cncc(C#Cc4c(N)ncc5cc(F)ccc45)c3)cc2C(F)(F)F)CC1
no

Identify the outcome logged in this assay for the compound shown: Cc1cc(N2CCOCC2)nc(N(CCCNc2ccnc3cc(Cl)ccc23)Cc2ccc3c(c2)OCO3)n1
yes

Which outcome did this test record for the compound O=C1CCC(C(=O)N/N=C/c2ccc([N+](=O)[O-])cc2)N1 (stereo unspecified) ?
no

Per the assay record, what outcome was assigned to COC(=O)c1ccc(-n2cc(CCCOS(=O)(=O)c3ccc(F)cc3)nn2)cc1 ?
no
